Reference for the values: PubChem BioAssay (NCI)

System: M14 melanoma
Assay: NCI tumour cell line growth inhibition, 48 h
Measured property: GI50

In the examples that follow, each entry is paired with its recorded GI50.
- Structure smiles string: "Clc1cc2c(nn1)Nc1ccccc1S2"
  Assayed system: "M14 melanoma"
  Result: "> 100 µM"
- Structure smiles string: "COc1ccc(-c2nn(-c3cccc(NC(=O)Nc4ccccc4)c3)cc2-c2ccncc2)cc1Cl"
  Assayed system: "M14 melanoma"
  Result: "2.26 µM"
- Structure smiles string: "Clc1nc(Cl)c2c3c(sc2n1)CCCC3"
  Assayed system: "M14 melanoma"
  Result: "4.49 µM"

Dear reader, for each entry below, please note its GI50.
1. CCCC[n+]1c(/C=C\c2c(OC)cc(OC)cc2OC)ccc2ccccc21
2. CCCCCCCCCCCCCCCC(=O)N[C@H](/C=C/[C@H](O)CCCCCCCCCCCCC)CO
3. O=C1CCCCC=C1C[N+](=O)[O-]

[A]
1. 1.18 µM
2. > 100 µM
3. 19.3 µM

Dear reader, for each entry below, please note its GI50.
1. O=[N+]([O-])c1ccc(Sc2nc(Cl)nc(NC3CCCC3)n2)cc1
2. NCCCn1c2c(c3ccc([N+](=O)[O-])cc3c1=O)C(=O)c1cc(-c3ccccc3)ccc1-2
3. O=C(N=Nc1c(O)[nH]c2ccccc12)c1oc2ccccc2c1CN1CCN(c2ccccc2)CC1
4. NCCCCCCCCCCCn1c2c(c3ccccc3c1=O)C(=O)c1ccccc1-2

[A]
1. > 10 µM
2. 1.12 µM
3. 2.07 µM
4. 5.92 µM
